test: Stability in aqueous solution under long-term storage conditions (related substances); format: physicochemical; settings: 25° C., 75% RH
Square brackets hold non-standard residues; d marks the D form. Peptide text beside a SMILES is read from it. Hyp = O=C(O)[C@@H]1C[C@@H](O)CN1
measurement type: Amount of related substances (after 12 weeks) (%)

-- ask Consider the compound CC(C)C[C@H](NC(=O)CNC(=O)[C@H](Cc1ccc(O)cc1)NC(=O)[C@H](CCC(N)=O)NC(=O)CNC(=O)[C@@H]1C[C@@H](O)CN1)C(=O)N[C@@H](C)C(=O)NCC(=O)N1CCC[C@H]1C(=O)N[C@@H](CCCCN)C(=O)O [YDE-013] (H-[Hyp]GQYGLAGPK-OH) . State its measured Amount of related substances (after 12 weeks).
-- reply 5.92

P. CC(C)C[C@H](NC(=O)CNC(=O)[C@H](CC(C)C)NC(=O)[C@H](CCC(N)=O)NC(=O)CNC(=O)[C@@H]1C[C@@H](O)CN1)C(=O)O [YDE-042] (H-[Hyp]GQLGL-OH)
Q. CC(C)C[C@H](NC(=O)[C@H](C)NC(=O)[C@H](CC(=O)O)NC(=O)[C@H](CCC(N)=O)NC(=O)CNC(=O)[C@@H]1C[C@@H](O)CN1)C(=O)N[C@@H](C)C(=O)NCC(=O)N1CCC[C@H]1C(=O)N[C@@H](CCCCN)C(=O)O [YDE-018] (H-[Hyp]GQDALAGPK-OH)
-- ask # compare Amount of related substances (after 12 weeks) for P vs Q ; return the one with the smaller value I would appreciate it if you answered with the label of your choice.
-- reply P
(P: 3.98%, Q: 25.39%)

A. CC(C)C[C@H](NC(=O)[C@H](CCC(N)=O)NC(=O)CNC(=O)[C@@H]1C[C@@H](O)CN1)C(=O)NCC(=O)O [YDE-043] (H-[Hyp]GQLG-OH)
B. CC(C)C[C@H](NC(=O)CNC(=O)[C@H](CC(N)=O)NC(=O)[C@H](CCC(N)=O)NC(=O)CNC(=O)[C@@H]1C[C@@H](O)CN1)C(=O)N[C@@H](C)C(=O)NCC(=O)N1CCC[C@H]1C(=O)N[C@@H](CCCCN)C(=O)O [YDE-002] (H-[Hyp]GQNGLAGPK-OH)
-- ask # compare Amount of related substances (after 12 weeks) for A vs B ; return the one with the smaller value I would appreciate it if you answered with the label of your choice.
-- reply A

* * *

test: Stability in aqueous solution under long-term storage conditions (related substances); type: physicochemical; conditions: 25° C., 75% RH
Numbered stars: 1 amine (or outer) side, 2 acyl side, 3 side chain; on linkers, the order of the positions; unused ones are H or OH. Square brackets hold non-standard residues; d marks the D form. Peptide text beside a SMILES is read from it. Pro(4,4-Me2) = CC1(C)CN[C@H](C(=O)O)C1; X1 = O=C([C@H](CCCCO)N[*:1])[*:2]; Hyp = O=C(O)[C@@H]1C[C@@H](O)CN1
measurement type: Amount of related substances (after 12 weeks) (%)

-- ask Consider the molecule CC(C)C[C@H](NC(=O)CNC(=O)[C@H](CCC(N)=O)NC(=O)[C@H](CCC(N)=O)NC(=O)CNC(=O)[C@@H]1C[C@@H](O)CN1)C(=O)N[C@@H](C)C(=O)NCC(=O)N1CCC[C@H]1C(=O)N[C@@H](CCCCN)C(=O)O [YDE-003] (H-[Hyp]GQQGLAGPK-OH) . State its measured Amount of related substances (after 12 weeks).
-- reply 6.86

P. CC(C)C[C@H](NC(=O)CNC(=O)[C@H](CC(C)C)NC(=O)[C@H](CCC(N)=O)NC(=O)CNC(=O)[C@@H]1C[C@@H](O)CN1)C(=O)N[C@@H](C)C(=O)NCC(=O)N1CCC[C@H]1C(=O)N[C@@H](CCCCO)C(=O)O [YDE-033] (H-[Hyp]GQLGLAGP[X1]-OH)
Q. CC(C)C[C@H](NC(=O)CNC(=O)[C@H](CC(C)C)NC(=O)[C@H](CCC(N)=O)NC(=O)CNC(=O)[C@@H]1CC(C)(C)CN1)C(=O)N[C@@H](C)C(=O)NCC(=O)N1CCC[C@H]1C(=O)N[C@@H](CCCCN)C(=O)O [YDE-040] (H-[Pro(4,4-Me2)]GQLGLAGPK-OH)
R. CC(C)C[C@H](NC(=O)CNC(=O)[C@H](CC(C)C)NC(=O)[C@H](CCC(N)=O)NC(=O)CNC(=O)[C@@H]1C[C@@H](O)CN1)C(=O)N[C@@H](C)C(=O)NCC(=O)N1CCC[C@H]1C(=O)N[C@@H](CCC(=O)O)C(=O)O [YDE-031] (H-[Hyp]GQLGLAGPE-OH)
-- ask With regard to Amount of related substances (after 12 weeks), arrange the entries in ascending order, please. Use the labels to give the requested order.
-- reply Q, P, R
